Where do these numbers come from? They come from patent US20100196385A1.

Target: T1, human Jagged1 (human, UniProt P78504 34-1218)
T1 construct: whole, on cells
T1 sequence (P78504 34-1218): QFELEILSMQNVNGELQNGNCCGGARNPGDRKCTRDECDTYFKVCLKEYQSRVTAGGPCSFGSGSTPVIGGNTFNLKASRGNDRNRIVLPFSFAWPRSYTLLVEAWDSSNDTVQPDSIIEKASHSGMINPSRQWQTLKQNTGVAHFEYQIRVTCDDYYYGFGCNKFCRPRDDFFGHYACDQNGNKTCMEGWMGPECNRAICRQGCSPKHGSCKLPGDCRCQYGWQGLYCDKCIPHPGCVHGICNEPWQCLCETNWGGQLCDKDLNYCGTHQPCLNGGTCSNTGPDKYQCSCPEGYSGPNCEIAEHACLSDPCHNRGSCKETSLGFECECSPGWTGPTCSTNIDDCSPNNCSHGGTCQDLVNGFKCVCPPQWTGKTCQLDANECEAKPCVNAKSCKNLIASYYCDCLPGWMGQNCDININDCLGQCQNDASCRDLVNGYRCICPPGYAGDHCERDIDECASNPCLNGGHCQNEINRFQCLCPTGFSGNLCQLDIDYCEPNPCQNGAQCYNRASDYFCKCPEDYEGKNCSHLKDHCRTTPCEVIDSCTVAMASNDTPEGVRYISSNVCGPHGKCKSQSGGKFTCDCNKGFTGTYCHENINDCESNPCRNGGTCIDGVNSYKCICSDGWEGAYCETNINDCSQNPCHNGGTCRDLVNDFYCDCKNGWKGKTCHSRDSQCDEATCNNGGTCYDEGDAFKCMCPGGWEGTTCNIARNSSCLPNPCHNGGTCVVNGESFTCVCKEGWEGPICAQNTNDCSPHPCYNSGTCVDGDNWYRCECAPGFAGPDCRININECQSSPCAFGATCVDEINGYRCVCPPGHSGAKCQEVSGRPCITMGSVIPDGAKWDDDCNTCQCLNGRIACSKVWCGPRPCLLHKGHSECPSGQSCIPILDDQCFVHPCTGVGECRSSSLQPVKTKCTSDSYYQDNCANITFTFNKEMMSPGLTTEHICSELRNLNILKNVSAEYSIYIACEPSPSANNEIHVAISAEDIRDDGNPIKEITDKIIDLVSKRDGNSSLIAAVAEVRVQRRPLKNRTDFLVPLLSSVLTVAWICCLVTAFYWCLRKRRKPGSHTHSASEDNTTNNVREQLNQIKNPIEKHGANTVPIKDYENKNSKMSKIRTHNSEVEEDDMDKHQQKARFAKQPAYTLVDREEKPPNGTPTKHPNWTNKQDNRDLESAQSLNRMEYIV
Test: FACS, 5 µg/ml, 293T cells with human Jagged1 vs mock
Method: The ability of the purified antibodies to bind to human Jagged1 and Dll1 was determined by FACS analysis. […] Cells were resuspended in PBS containing 2% FCS and seeded at 50000 cells/well into V-bottomed plates. […] Data was analyzed by comparing the shift in geometric mean fluorescence in the mock-transfected cells to that observed in the Jagged1- or Dll1-transfected cells and is shown in Tables 16 and 17.
In this section we review reported Jagged1/mock ratio values for a set of binders.
Answer with a bare number; do not write a unit.

// below: answered binders
[
  {
    "BINDER": "3A7 (antibody, IgG4, V domains shown, Fully human; also used where no isotype is printed) VH: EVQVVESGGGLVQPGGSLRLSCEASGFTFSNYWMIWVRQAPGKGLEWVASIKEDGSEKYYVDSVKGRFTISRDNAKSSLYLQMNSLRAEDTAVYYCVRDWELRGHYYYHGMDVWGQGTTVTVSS VL: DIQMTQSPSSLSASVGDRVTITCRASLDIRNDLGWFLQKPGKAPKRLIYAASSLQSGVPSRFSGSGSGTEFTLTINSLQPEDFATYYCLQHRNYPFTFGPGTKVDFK",
    "Jagged1/mock ratio": 1.1
  },
  {
    "BINDER": "2H10 (antibody, IgG4, V domains shown, Fully human; used for IgG4 rows and where no isotype is printed; also called 2H10 IgG4) VH: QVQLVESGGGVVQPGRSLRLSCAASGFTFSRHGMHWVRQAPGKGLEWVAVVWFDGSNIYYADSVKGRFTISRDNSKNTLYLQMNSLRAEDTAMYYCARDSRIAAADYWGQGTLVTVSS VL: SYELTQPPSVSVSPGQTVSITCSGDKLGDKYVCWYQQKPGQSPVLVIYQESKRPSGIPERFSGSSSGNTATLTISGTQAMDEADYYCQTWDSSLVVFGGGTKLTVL",
    "Jagged1/mock ratio": 1.26
  }
]

Exam item: Jagged1/mock ratio for 12A1 (antibody, IgG4, V domains shown, Fully human; also used where no isotype is printed) VH: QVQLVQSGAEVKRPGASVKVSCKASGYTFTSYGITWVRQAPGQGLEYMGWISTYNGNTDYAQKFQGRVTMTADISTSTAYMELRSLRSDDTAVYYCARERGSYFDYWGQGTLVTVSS VL: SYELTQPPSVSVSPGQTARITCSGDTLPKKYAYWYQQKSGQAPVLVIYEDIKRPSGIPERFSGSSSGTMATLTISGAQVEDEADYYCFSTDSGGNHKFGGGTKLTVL ?
Marked response: 1.11
